# System: phosphorylation of Cdc2 Y15 (Wee1 substrate) in A427 cells
# test name: Phosphorylated Cdc2 MSD Electrochemiluminescence Assay
# Type: cell-based
# condition set: Homo sapiens, A-427, pCDC2 MSD
measured metric: IC50

Worked examples follow.
The molecule CN1CCC(c2ncc(Nc3ncc4c(n3)N(c3cccc(N=S(C)(C)=O)n3)[C@@H]3CC(C)(C)OC[C@]43C)s2)CC1 (single isomer, unassigned) [Example 221] showed IC50 equal to < 100 nM

Documented IC50 of CC1(C)C[C@H]2N(c3cccc(N=S(C)(C)=O)n3)c3nc(Nc4ccn(C5CC5)c(=O)c4)ncc3[C@@]2(C)CO1 (single isomer, unassigned) [Example 380] : 100 to 1000 nM

Lab note: measured IC50 of C[C@H]1COC(=O)N1c1cccc(N2c3nc(Nc4ccc(N5C[C@@H]6C[C@H]5CN6C)c(F)c4)ncc3[C@@]3(C)COC(C)(C)C[C@@H]23)n1 (single isomer, unassigned) [Example 293] was 100 to 1000 nM

// IC50 value for CNCc1cccc(N2c3nc(Nc4ccc([C@H]5CNC(=O)C5)cc4)ncc3[C@@]3(C)COC(C)(C)C[C@@H]23)n1 (single isomer, unassigned) [Example 61] : < 100 nM

Value of measured IC50 for the entry C[C@H]1COC(=O)N1c1cccc(N2c3nc(Nc4ccc(N5CCNCC5)cc4)ncc3[C@@]3(C)COC(C)(C)C[C@@H]23)n1 (single isomer, unassigned) [Example 260] : 100 to 1000 nM

Next:
Reported IC50 for C[C@H]1COC(=O)N1c1cccc(N2c3nc(Nc4ccc([C@]5(C)CCN(C)C5)cc4)ncc3[C@@]3(C)COC(C)(C)C[C@@H]23)n1 (single isomer, unassigned) [Example 351] was < 100 nM

GET /value?item= CNCc1cccc(N2c3nc(Nc4ccn([C@@H]5CCOC5)c(=O)c4)ncc3[C@@]3(C)COC(C)(C)C[C@@H]23)n1 (single isomer, unassigned) [Example 388] &field=IC50 returns 100 to 1000 nM

Reported IC50 of Cc1cc(Nc2ncc3c(n2)N(c2cccc(N=S(C)(C)=O)n2)[C@@H]2CC(C)(C)OC[C@]32C)ccc1[C@H]1CCN(C)C1 (single isomer, unassigned) [Example 147] : < 100 nM
